B1: glmS ribozyme (parent)
chain: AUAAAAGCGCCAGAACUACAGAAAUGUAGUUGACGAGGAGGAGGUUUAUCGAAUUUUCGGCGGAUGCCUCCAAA

Variants of: B1
assayInfo: self-cleavage kobs at 2500 uM GlcN6P; higher = faster cleavage; RNA array
conditions: with glucosamine-6-phosphate
Fewer inactive variants are shown than the library holds.
experimentalEndpoint: self-cleavage kobs at 2500 uM GlcN6P

[
  {
    "sequenceEntry": "AUAAAAGCGCCAAAACUACAGAAAUGUAAUUGACGAGGAGGAGGUUUAUCGAAUUUUCGGCGGAUGCCUCCAAA",
    "resultValue": "8.32e-05 s⁻¹"
  },
  {
    "sequenceEntry": "AUAAAAGCGCCACAACUACAGAAAUGUAGUUGAUUAGGAGGAGGUUUAUCGAAUUUUCGGCGGAUGCCUCCAAA",
    "resultValue": "< 1e-05 s⁻¹"
  },
  {
    "sequenceEntry": "AUAAAAGCGCUAGAACUACAGAAAUGUAGUUGACGAGGAGGAGGUUUUUCGAAUUUUCGUCGGAUGCCUCCAAA",
    "resultValue": "< 1e-05 s⁻¹"
  },
  {
    "sequenceEntry": "AUAAAAGCGCCAGAACUACAGAAAUGUAGUUGAGGAGGAGGAGGUUUAUCGAAUUUUCGGCGAAUGCCUCCAAA",
    "resultValue": "< 1e-05 s⁻¹"
  }
]

Entry under review: `AUAAAACGGCCAGAACUACAGAAAUGUAGUUGACGAGGAGGAGGUUUAUCGGAUUUUCGGCGGAUGCCUCCAAA` . Reported self-cleavage kobs at 2500 uM GlcN6P?
< 1e-05 s⁻¹

Entry under review: `AUAAAAGCGCCAAAACUACAGAAAUGUAGUUGACGAGGAGGAGGUUUAUGGAAUUUUCGGCGGAUGCGUCCAAA` . Reported self-cleavage kobs at 2500 uM GlcN6P?
0.000125 s⁻¹

Entry under review: `AUAAAAGCGCCAGAACUACAGAAAUGUAGUUGACGAGGAGGAGGUUUAUCGAAUUUUUGGCGGAUGCCUGCAAA` . Reported self-cleavage kobs at 2500 uM GlcN6P?
2.22e-05 s⁻¹

Entry under review: `AUAAAAGCGCCAGAAUUACAGAAAUGUAGUUGACGAGGAGGAUGUUUAUCGAAUUUCCGGCGGAUGCCUCCAAA` . Reported self-cleavage kobs at 2500 uM GlcN6P?
< 1e-05 s⁻¹

Entry under review: `AUAAAAGCGCCAGAAUUACAGAAAUGUAGUUGACGAUGAGGAGGUUUAUCGAAUUUUCGGCGGAUGCGGCCAAA` . Reported self-cleavage kobs at 2500 uM GlcN6P?
4.23e-05 s⁻¹

Entry under review: `AUAAAAGCGCCAGAACUACAGAAAUGUAGUUGACGAGGAGGAGGUUUAUCGAAUUUUCGGCGGAUGCUUCCAAA` . Reported self-cleavage kobs at 2500 uM GlcN6P?
0.00371 s⁻¹

Entry under review: `AUAAAAGCGCCAGAACUACAGAAAUGUAGUUGACGAGGUGGAGGUUUAUCGAAUUUUCGGCGGAUACGUCCAAA` . Reported self-cleavage kobs at 2500 uM GlcN6P?
4.5e-05 s⁻¹

Entry under review: `AUAAAAGCGCCAGAACUACAGAAAUGUAGCCGACGAGGAGGAGGUUUAUCGAUUAUUCGGCGGAUGCCUCCAAA` . Reported self-cleavage kobs at 2500 uM GlcN6P?
0.00034 s⁻¹

Entry under review: `AUAAAAGCGCCAGAACUACAGAAAUGUAGUUGACGAGGAGGAGAUUUAUCGAACUUUCGGCGGAUGCCUCCAAA` . Reported self-cleavage kobs at 2500 uM GlcN6P?
0.000372 s⁻¹

Entry under review: `AUAAAAGCGCCAGAACUACAGAAAUGUAAUUGACGAGGAGGAGUUUUAUCGAAUUUUCGGCGGACGCCUCCAAA` . Reported self-cleavage kobs at 2500 uM GlcN6P?
< 1e-05 s⁻¹

Entry under review: `AUAAAAGCGCCAGAACUACAGAAAUGUAGUUGACGAGGAGGAGGUUUUUCGAAUUUUUGGCGGCUGCCUCCAAA` . Reported self-cleavage kobs at 2500 uM GlcN6P?
< 1e-05 s⁻¹

Entry under review: `AUAAAAGCGCCAGAACUACAGAAAUGUAGUAGAUGAGGAGGAGGUUUAUCUAAUUUUCGGCGGAUGCCUCCAAA` . Reported self-cleavage kobs at 2500 uM GlcN6P?
< 1e-05 s⁻¹
